target entity: HiBit-BRG1 (Homo sapiens, UniProt P51532)
Construct: expressed in transfected cells
Sequence (P51532 whole entry): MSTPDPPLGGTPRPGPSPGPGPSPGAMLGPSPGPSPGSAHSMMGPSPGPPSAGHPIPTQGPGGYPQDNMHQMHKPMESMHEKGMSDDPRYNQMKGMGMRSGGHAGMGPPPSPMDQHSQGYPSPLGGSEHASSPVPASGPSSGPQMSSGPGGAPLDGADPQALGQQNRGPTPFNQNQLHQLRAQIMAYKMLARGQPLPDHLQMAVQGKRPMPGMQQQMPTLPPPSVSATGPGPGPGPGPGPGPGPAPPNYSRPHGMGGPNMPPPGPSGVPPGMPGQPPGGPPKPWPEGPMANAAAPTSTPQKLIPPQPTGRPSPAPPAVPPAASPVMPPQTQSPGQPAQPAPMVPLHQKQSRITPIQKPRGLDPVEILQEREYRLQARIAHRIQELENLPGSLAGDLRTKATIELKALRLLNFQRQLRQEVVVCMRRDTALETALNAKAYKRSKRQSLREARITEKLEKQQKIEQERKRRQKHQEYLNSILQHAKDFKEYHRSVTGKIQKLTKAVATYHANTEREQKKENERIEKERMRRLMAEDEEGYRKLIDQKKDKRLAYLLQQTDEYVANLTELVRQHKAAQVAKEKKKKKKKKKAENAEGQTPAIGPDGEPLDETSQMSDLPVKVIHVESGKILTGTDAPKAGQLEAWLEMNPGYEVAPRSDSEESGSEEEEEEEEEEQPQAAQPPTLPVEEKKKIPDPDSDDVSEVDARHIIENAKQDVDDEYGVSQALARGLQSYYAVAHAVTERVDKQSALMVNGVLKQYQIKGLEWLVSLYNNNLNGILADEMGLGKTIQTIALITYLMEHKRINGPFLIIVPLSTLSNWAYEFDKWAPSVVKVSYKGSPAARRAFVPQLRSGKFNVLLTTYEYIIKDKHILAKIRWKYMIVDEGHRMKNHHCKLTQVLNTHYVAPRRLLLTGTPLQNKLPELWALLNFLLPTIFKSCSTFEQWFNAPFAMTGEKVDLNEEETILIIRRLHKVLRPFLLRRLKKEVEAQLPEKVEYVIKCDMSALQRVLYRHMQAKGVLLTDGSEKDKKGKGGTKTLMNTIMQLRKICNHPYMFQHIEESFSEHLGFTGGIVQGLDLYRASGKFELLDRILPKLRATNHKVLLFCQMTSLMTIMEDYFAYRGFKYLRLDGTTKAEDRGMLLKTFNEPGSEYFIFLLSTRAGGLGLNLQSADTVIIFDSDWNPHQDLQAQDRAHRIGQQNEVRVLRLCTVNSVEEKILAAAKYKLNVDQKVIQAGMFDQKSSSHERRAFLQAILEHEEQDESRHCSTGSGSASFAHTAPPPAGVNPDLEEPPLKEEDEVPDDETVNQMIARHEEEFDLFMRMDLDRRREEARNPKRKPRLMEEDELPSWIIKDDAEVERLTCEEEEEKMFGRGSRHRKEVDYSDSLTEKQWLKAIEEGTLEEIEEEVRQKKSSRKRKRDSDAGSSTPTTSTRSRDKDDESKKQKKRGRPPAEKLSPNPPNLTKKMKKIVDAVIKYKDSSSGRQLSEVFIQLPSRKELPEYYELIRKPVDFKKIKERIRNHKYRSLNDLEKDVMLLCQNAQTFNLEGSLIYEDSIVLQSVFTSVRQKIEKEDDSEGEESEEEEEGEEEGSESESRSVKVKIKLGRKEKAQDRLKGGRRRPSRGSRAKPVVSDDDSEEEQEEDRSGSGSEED
assay summary: HiBit-BRG1 cell-based degradation assay (Nano-Glo HiBiT Lytic Detection)
applied conditions: HeLa cells expressing HiBit-BRG1 and LgBit, 24 h; read-out: BRG1 HiBit Degradation IC50
quantity measured: DC50

[[record]]
compound = "Nc1nnc(-c2ccccc2O)cc1N1CCN(CC(=O)NCCCCNc2ccc3c(c2)C(=O)N(C2CCC(=O)NC2=O)C3=O)CC1 (stereo not shown)"
quantity_measured = "DC50"
observed_value = "> 1 µM"

[[record]]
compound = "Nc1nnc(-c2ccccc2O)cc1OCCc1ccc(CNC(=O)CCCCCCCCNc2ccc3c(c2)C(=O)N(C2CCC(=O)NC2=O)C3=O)cc1 (stereo not shown)"
quantity_measured = "DC50"
observed_value = "> 1 µM"

[[record]]
compound = "Cc1ncsc1-c1ccc(CNC(=O)[C@H]2C[C@H](O)CN2C(=O)[C@H](NC(=O)COCCOCCOCCNC(=O)c2ccc(CCOc3cc(-c4ccccc4O)nnc3N)cc2)C(C)(C)C)cc1 (stereo in doubt)"
quantity_measured = "DC50"
observed_value = "> 1 µM"

[[record]]
compound = "Cc1ncsc1-c1ccc([C@H](C)NC(=O)[C@@H]2C[C@@H](O)CN2C(=O)[C@@H](c2cc(OCCN(C)Cc3ccc(CCOc4cc(-c5ccccc5O)nnc4N)cc3)no2)C(C)C)cc1"
quantity_measured = "DC50"
observed_value = "< 0.01 µM"

[[record]]
compound = "Nc1nnc(-c2ccccc2O)cc1N1CCN(CCNC(=O)CCCCCCCCNc2cccc3c2C(=O)N(C2CCC(=O)NC2=O)C3=O)CC1 (stereo not shown)"
quantity_measured = "DC50"
observed_value = "> 1 µM"


-- ask Fill blank: measured DC50 of the compound Cc1ncsc1-c1ccc(CNC(=O)[C@@H]2C[C@@H](O)CN2C(=O)[C@@H](NC(=O)CCCCCCCCC(=O)NCc2ccc(CCNc3cc(-c4ccccc4O)nnc3N)cc2)C(C)(C)C)cc1 is ____.
-- reply > 1 µM

-- ask Report DC50 for Cc1ncsc1-c1ccc(CNC(=O)[C@@H]2C[C@@H](O)CN2C(=O)[C@@H](NC(=O)CCN2CCC3(CC2)CC(C(=O)NCc2ccc(CCOc4cc(-c5ccccc5O)nnc4N)cc2)C3)C(C)(C)C)cc1 please.
-- reply > 1 µM

----------
target entity: HiBit-BRG1 (Homo sapiens, UniProt P51532)
Construct: expressed in transfected cells
assay summary: HiBit-BRG1 cell-based degradation assay (Nano-Glo HiBiT Lytic Detection)
applied conditions: HeLa cells expressing HiBit-BRG1 and LgBit, 24 h; read-out: BRG1 HiBit Degradation Maximum (%)
Where a name gives a salt, the structure may show the parent alone.
quantity measured: Dmax

Example entries and their recorded answers appear below.
[[record]]
compound = "CN(CCc1ccc(CNC(=O)CCCCNc2cccc3nnn(C4CCC(=O)NC4=O)c(=O)c23)cc1)c1cc(-c2ccccc2O)nnc1N (stereo not drawn)"
quantity_measured = "Dmax"
observed_value = "< 50%"

[[record]]
compound = "Cc1ncsc1-c1ccc(CNC(=O)[C@@H]2C[C@@H](O)CN2C(=O)[C@@H](NC(=O)CN2CCN(CCOc3cc(N4[C@@H]5CC[C@H]4CN(c4cc(-c6ccccc6O)nnc4N)C5)ccn3)CC2)C(C)(C)C)cc1"
quantity_measured = "Dmax"
observed_value = "> 75%"

[[record]]
compound = "Nc1nnc(-c2ccccc2O)cc1OCCc1ccc(C(=O)NCCCCCC(=O)NCc2ccc(S(=O)(=O)Nc3cccc4c(Cl)c[nH]c34)cc2)cc1"
quantity_measured = "Dmax"
observed_value = "< 50%"

[[record]]
compound = "Cc1ncsc1-c1ccc([C@H](C)NC(=O)[C@@H]2C[C@@H](O)CN2C(=O)[C@@H](NC(=O)CCCCCCCCCCCCCCNC(=O)c2ccc(CCOc3cc(-c4ccccc4O)nnc3N)cc2)C(C)(C)C)cc1"
quantity_measured = "Dmax"
observed_value = "< 50%"

[[record]]
compound = "Nc1nnc(-c2ccccc2O)cc1OCCc1ccc(CNC(=O)CCCCNc2cccc3c2C(=O)N(C2CCC(=O)NC2=O)C3)cc1 (stereo not drawn)"
quantity_measured = "Dmax"
observed_value = "< 50%"

[[record]]
compound = "Nc1nnc(-c2ccccc2O)cc1OCCc1ccc(C(=O)NCCOCCOCCNc2cccc3c2C(=O)N(C2CCC(=O)NC2=O)C3=O)cc1 (stereo not drawn)"
quantity_measured = "Dmax"
observed_value = "< 50%"

[[record]]
compound = "Nc1nnc(-c2ccccc2O)cc1OCCc1ccc(CNC(=O)CCCCOc2cccc3c2C(=O)N(C2CCC(=O)NC2=O)C3)cc1 (stereo not drawn)"
quantity_measured = "Dmax"
observed_value = "< 50%"

[[record]]
compound = "Cc1ncsc1-c1ccc(CNC(=O)[C@@H]2C[C@@H](O)CN2C(=O)[C@@H](NC(=O)COCC(=O)NCc2ccc(CCOc3cc(-c4ccccc4O)nnc3N)cc2)C(C)(C)C)cc1"
quantity_measured = "Dmax"
observed_value = "< 50%"


-- ask Please give the measured Dmax for this compound: Cc1ncsc1-c1ccc(CNC(=O)[C@@H]2C[C@@H](O)CN2C(=O)[C@@H](NC(=O)CCCCCCCCCCCCCCCC(=O)NCc2ccc(CCOc3cc(-c4ccccc4O)nnc3N)cc2)C(C)(C)C)cc1
-- reply < 50%

-- ask Value lookup for Dmax; key = CN(CCCCCOc1cccc2c1C(=O)N(C1CCC(=O)NC1=O)C2=O)Cc1ccc(CCNc2cc(-c3ccccc3O)nnc2N)cc1 (stereo not drawn) [Compound 150, formic acid salt]
-- reply < 50%

-- ask Returns the measured Dmax for the input compound. Input: Nc1nnc(-c2ccccc2O)cc1OCCc1ccc(C(=O)NCCCCCCCC(=O)NCc2ccc(S(=O)(=O)Nc3cccc4c(Cl)c[nH]c34)cc2)cc1
-- reply < 50%

-- ask What value of Dmax has been recorded for this entry: Cc1ncsc1-c1ccc(CNC(=O)[C@@H]2C[C@@H](O)CN2C(=O)[C@@H](NC(=O)CN2CCC(O[C@H]3C[C@H](Oc4cc(N5[C@@H]6CC[C@H]5CN(c5cc(-c7ccccc7O)nnc5N)C6)ccn4)C3)CC2)C(C)(C)C)cc1
-- reply > 75%

-- ask Recorded Dmax of Cc1ncsc1-c1ccc([C@H](C)NC(=O)[C@@H]2C[C@@H](O)CN2C(=O)[C@@H](NC(=O)CCCCCCCCCCCCCCC(=O)NCc2ccc(CCOc3cc(-c4ccccc4O)nnc3N)cc2)C(C)(C)C)cc1 , please.
-- reply < 50%

-- ask What does the data say about its Dmax? Entry: Cc1ncsc1-c1ccc(CNC(=O)[C@@H]2C[C@@H](O)CN2C(=O)[C@@H](NC(=O)CCN2C[C@H]3CC[C@@H](C2)N3C(=O)c2ccc(CCOc3cc(-c4ccccc4O)nnc3N)cc2)C(C)(C)C)cc1
-- reply < 50%

-- ask # input compound: Nc1nnc(-c2ccccc2O)cc1OCCc1ccc(CNC(=O)C2CCN(CCOc3ccc4c(c3)C(=O)N(C3CCC(=O)NC3=O)C4=O)CC2)cc1 (stereo not drawn) ; wanted: its Dmax
-- reply < 50%

-- ask Given the compound Nc1nnc(-c2ccccc2O)cc1OCCc1ccc(CNCCCCCNc2cccc3nnn(C4CCC(=O)NC4=O)c(=O)c23)cc1 (stereo not drawn) , what is its reported Dmax?
-- reply > 50%

-- ask Quick one: Dmax for Cc1ncsc1-c1ccc(CNC(=O)[C@@H]2C[C@@H](O)CN2C(=O)[C@@H](NC(=O)CCCCCCCCC(=O)NCc2ccc(CCN(C)c3cc(-c4ccccc4O)nnc3N)cc2)C(C)(C)C)cc1 ?
-- reply > 50%

-- ask What does the data say about its Dmax? Entry: Cc1ncsc1-c1ccc(CNC(=O)[C@@H]2C[C@@H](O)CN2C(=O)[C@@H](NC(=O)CCCCCCCNC(=O)CN2CCN(c3cc(-c4ccccc4O)nnc3N)CC2)C(C)(C)C)cc1
-- reply < 50%

-- ask Requested field: Dmax. Item: Nc1nnc(-c2ccccc2O)cc1N1CCN(CCNC(=O)CCCCCCCCCNc2cccc3c2C(=O)N(C2CCC(=O)NC2=O)C3=O)CC1 (stereo not drawn)
-- reply < 50%

-- ask Can you look up the measured Dmax of Nc1nnc(-c2ccccc2O)cc1OCCc1ccc(CNCCCC2CN(c3ccc4c(c3)C(=O)N(C3CCC(=O)NC3=O)C4=O)C2)cc1 (stereo not drawn) for me?
-- reply < 50%

-- ask I would be grateful if you could share the reported Dmax for Nc1nnc(-c2ccccc2O)cc1N1CCN(CCNC(=O)CCOCCOCCNc2ccc3c(c2)C(=O)N(C2CCC(=O)NC2=O)C3=O)CC1 (stereo not drawn) .
-- reply < 50%

----------
target entity: HiBit-BRG1 (Homo sapiens, UniProt P51532)
Construct: expressed in transfected cells
assay summary: HiBit-BRG1 cell-based degradation assay (Nano-Glo HiBiT Lytic Detection)
applied conditions: HeLa cells expressing HiBit-BRG1 and LgBit, 24 h; read-out: BRG1 HiBit Degradation Maximum (%)
quantity measured: Dmax

// below: answered compounds
[[record]]
compound = "Nc1nnc(-c2ccccc2O)cc1OCCc1ccc(CN2CC(CCCOc3cccc4c3C(=O)N(C3CCC(=O)NC3=O)C4=O)C2)cc1 (centres unmarked) [Compound 127]"
observed_value = "< 50%"

[[record]]
compound = "Nc1nnc(-c2ccccc2O)cc1OCCc1ccc(CNCCCCOc2cccc3c2C(=O)N(C2CCC(=O)NC2=O)C3=O)cc1 (centres unmarked) [Compound 121]"
observed_value = "< 50%"


-- ask Need Dmax, item Cc1ncsc1-c1ccc([C@H](C)NC(=O)[C@@H]2C[C@@H](O)CN2C(=O)[C@@H](c2cc(OCCN3CC(C4CN(C(=O)c5ccc(CCOc6cc(-c7ccccc7O)nnc6N)cc5)C4)C3)no2)C(C)C)cc1 [Compound 222]
-- reply > 75%

-- ask Sample Cc1ncsc1-c1ccc(CNC(=O)[C@@H]2C[C@@H](O)CN2C(=O)[C@@H](NC(=O)CCCCCCCCCNC(=O)c2ccc(CCNc3cc(-c4ccccc4O)nnc3N)cc2)C(C)(C)C)cc1 [Compound 134] — what was its Dmax?
-- reply < 50%

-- ask For Cc1ncsc1-c1ccc(CNC(=O)[C@@H]2C[C@@H](O)CN2C(=O)[C@@H](NC(=O)CCCCCCCCCCCCCC(=O)NCc2ccc(CCOc3cc(-c4ccccc4O)nnc3N)cc2)C(C)(C)C)cc1 [Compound 35] , what is its reported Dmax?
-- reply < 50%

-- ask Could you share which Dmax value was measured for Cc1ncsc1-c1ccc(CNC(=O)[C@@H]2C[C@@H](O)CN2C(=O)[C@@H](NC(=O)CCCCCCCCC(=O)NCc2ccc(CCOc3cc(-c4ccccc4O)nnc3N)cc2)C(C)(C)C)cc1 [Compound 138] ?
-- reply < 50%

-- ask Look up Dmax for this compound: Nc1nnc(-c2ccccc2O)cc1OCCc1ccc(CNC(=O)CCOCCOCCNc2ccc3c(c2)C(=O)N(C2CCC(=O)NC2=O)C3=O)cc1 (centres unmarked) [Compound 70]
-- reply < 50%
